- testDescription: Toxicity test/peroral
- conditionSet: in vivo, po; Albino rat, peroral, evaluation after 7 days
LD50 at 168 h overview

CCCSP(=S)(OCC)Oc1ccc(C)nn1 (centres unmarked) : ~50 mg/kg
CCCSP(=S)(OCC)Oc1ccc(Br)nn1 (centres unmarked) : 100 to 250 mg/kg
CCOP(=S)(OCC)Oc1ccc(Cl)nn1 : ~5 mg/kg
CCOP(=S)(OCC)Oc1ccc(C)nn1 : 0.5 to 1 mg/kg

Exercise: Entry CCCSP(=S)(OCC)Oc1ccc(Cl)nn1 (centres unmarked) : reported LD50 at 168 h = ?
Solution: 100 to 250 mg/kg
